# pIC50 per record follows
# tested target: ecNOS (Homo sapiens)
# procedure text: NOS activity: L-[3H]citrulline formation from L-[3H]arginine, ecNOS
# Format: biochemical
# run parameters: Table 2; ecNOS; 1 μM L-Arg, pH 7.5, room temperature, 30 minutes; read-out: ecNOS (IC50)
pIC50: −log10 of the molar value. Structures can show the parent of a compound that is named as a salt.

# count of solved cases: 4
molecule=Nc1cccc(Cc2ccccc2)n1 test_value="< 4.30"
molecule=Cc1ccnc(N)c1Cl test_value="> 5.00"
molecule=CC(=O)NCc1cnc(N)cc1C test_value="< 4.30"
molecule="Nc1ncccc1OCC[C@H](N)C(=O)O [Example 48, dihydrochloride]" test_value="> 5.00"

# Cc1cc(N)nc(C(C)C)c1 with ecNOS (Homo sapiens): pIC50 is > 6.00

* * *

# tested target: UniProt:P29475
# Sequence (P29475 whole entry): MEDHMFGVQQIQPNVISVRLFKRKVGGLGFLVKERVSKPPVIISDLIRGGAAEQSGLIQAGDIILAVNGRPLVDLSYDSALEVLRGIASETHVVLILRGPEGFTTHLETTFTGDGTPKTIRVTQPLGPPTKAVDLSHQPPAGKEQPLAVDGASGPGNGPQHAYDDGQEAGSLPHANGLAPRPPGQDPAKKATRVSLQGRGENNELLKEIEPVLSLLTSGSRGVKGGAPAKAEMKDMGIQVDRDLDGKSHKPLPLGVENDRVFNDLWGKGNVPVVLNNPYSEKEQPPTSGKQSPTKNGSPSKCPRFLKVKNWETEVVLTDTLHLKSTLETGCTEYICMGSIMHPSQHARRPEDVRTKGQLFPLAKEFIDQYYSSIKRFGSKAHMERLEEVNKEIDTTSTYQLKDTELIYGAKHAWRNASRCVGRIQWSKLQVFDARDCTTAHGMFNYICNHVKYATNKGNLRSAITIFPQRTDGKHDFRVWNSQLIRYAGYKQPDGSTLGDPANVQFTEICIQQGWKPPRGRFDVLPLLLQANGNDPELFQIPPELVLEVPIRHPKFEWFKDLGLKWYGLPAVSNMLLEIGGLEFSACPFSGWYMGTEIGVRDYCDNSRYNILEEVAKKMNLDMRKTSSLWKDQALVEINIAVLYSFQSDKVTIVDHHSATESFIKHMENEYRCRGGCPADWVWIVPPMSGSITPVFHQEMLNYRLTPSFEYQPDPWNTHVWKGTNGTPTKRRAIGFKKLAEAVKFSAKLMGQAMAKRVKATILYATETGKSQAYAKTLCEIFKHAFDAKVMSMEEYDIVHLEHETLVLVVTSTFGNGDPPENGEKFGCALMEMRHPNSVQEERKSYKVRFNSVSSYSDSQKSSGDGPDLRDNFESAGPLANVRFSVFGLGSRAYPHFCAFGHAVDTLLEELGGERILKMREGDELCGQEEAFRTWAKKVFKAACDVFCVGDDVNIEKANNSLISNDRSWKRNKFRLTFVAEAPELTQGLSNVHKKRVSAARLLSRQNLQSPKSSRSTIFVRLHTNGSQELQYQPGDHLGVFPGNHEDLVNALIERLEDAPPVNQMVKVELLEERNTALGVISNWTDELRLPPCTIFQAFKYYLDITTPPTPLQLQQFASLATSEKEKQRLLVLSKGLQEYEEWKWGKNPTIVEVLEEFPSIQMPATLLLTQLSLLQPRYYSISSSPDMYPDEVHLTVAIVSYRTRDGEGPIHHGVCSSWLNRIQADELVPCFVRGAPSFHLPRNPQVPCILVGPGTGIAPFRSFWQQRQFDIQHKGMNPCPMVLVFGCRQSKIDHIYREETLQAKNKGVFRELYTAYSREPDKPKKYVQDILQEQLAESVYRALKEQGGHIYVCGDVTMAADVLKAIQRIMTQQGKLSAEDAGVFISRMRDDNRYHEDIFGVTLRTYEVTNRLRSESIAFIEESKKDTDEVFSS
# procedure text: biochemical
# run parameters: Table 2; ncNOS; 1 μM L-Arg, pH 7.5, room temperature, 30 minutes; read-out: ncNOS (IC50)
Where a name gives a salt, the structure may show the parent alone.
reported endpoint: IC50

// known answers, use as guide
molecule=Cc1cc(N)nc(CCCCc2ccccc2)c1 tested_target=UniProt:P29475 test_value="< 10 µM"
molecule=Cc1cc(N)nc(CCN)c1 tested_target=UniProt:P29475 test_value="< 1 µM"
molecule=CC(=O)Nc1cnc(N)cc1C tested_target=UniProt:P29475 test_value="< 50 µM"
molecule=Nc1cccc(Cc2ccccc2)n1 tested_target=UniProt:P29475 test_value="< 50 µM"
molecule=Cc1cc(N)nc(CCC(C)C)c1 tested_target=UniProt:P29475 test_value="< 1 µM"

The molecule Cc1cnc(N)cc1C [Example 49, hydrochloride] showed IC50 equal to < 1 µM

Memo: Cc1cc(N)nc(C(C)C)c1 , reported IC50: < 10 µM

Quick note, IC50 for COCc1c(C)ccnc1N [Example 25, dihydrochloride] landed at < 50 µM

For C#Cc1cnc(N)cc1C the molecule record lists IC50 as < 50 µM

Looking up Cc1ccnc(N)c1Cl , I see its IC50 listed as < 10 µM

* * *

# tested target: UniProt P29474
# procedure text: NOS activity: L-[3H]citrulline formation from L-[3H]arginine, ecNOS
# Type: biochemical
# run parameters: Table 1; ecNOS; 1 μM L-Arg, pH 7.5, room temperature, 30 minutes; read-out: ecNOS (IC50)
reported endpoint: IC50 (µM)

mol=Cc1cccc(N)n1 test_value=0.82

(P) Nc1cccnc1N
(Q) Nc1cc(C(F)(F)F)ccn1
(R) Cc1ccnc(N)c1N
(S) Cc1ccc(N)nc1
(T) Cc1cccnc1N
Order field: IC50 | Direction: descending (largest first) Please express your ranking as an ordered list of the labels.
Q, S, P, T, R

* * *

Consider the following molecules and their measured pIC50 readings.
# tested target: ecNOS (Homo sapiens)
# procedure text: NOS activity: L-[3H]citrulline formation from L-[3H]arginine, ecNOS
# Format: biochemical
# run parameters: Table 2; ecNOS; 1 μM L-Arg, pH 7.5, room temperature, 30 minutes; read-out: ecNOS (IC50)
pIC50: −log10 of the molar value. Where a name gives a salt, the structure may show the parent alone.

Consider the reported pIC50 for these molecules:
molecule="CC(=O)NCCCCc1cc(C)cc(N)n1 [Example 57]" tested_target="ecNOS (Homo sapiens)" reported_endpoint=pIC50 test_value="> 5.00"
molecule="CCc1c(C)ccnc1N [Example 24, dihydrochloride]" tested_target="ecNOS (Homo sapiens)" reported_endpoint=pIC50 test_value="> 5.00"
molecule="Cc1cc(N)nc(CC[C@H](C)N)c1 [Example 76]" tested_target="ecNOS (Homo sapiens)" reported_endpoint=pIC50 test_value="> 5.00"
molecule="CSc1ccnc(N)c1 [Example 35, 4-Methylthio-2-aminopyridine]" tested_target="ecNOS (Homo sapiens)" reported_endpoint=pIC50 test_value="> 4.30"
molecule="Cc1cc(N)nc(CCC(C)C)c1 [Example 71]" tested_target="ecNOS (Homo sapiens)" reported_endpoint=pIC50 test_value="> 5.00"

The molecule listed as Cc1cc(N)nc(CCO)c1 [Example 58] shows pIC50 equal to > 6.00

Note to self: pIC50 recorded for Nc1nccc2c1CCCC2 [Example 65, 1-Amino-5,6,7,8-tetrahydroisoquinoline] was > 4.30

pIC50 in this record for Nc1ccnc(N)c1 [Example 38, 2,4-Diaminopyridine dihydrochloride] : > 4.30

Quick note, pIC50 for Cc1cc(N)nc(CCCCN)c1 [Example 56] landed at > 5.00

What the record says about CSc1c(C)ccnc1N [Example 21, 2-Amino-3-methylthio-4-picoline] : pIC50 is > 4.30

For record COC(=O)c1cc(Cl)cc(N)n1 [Example 36] the listed pIC50 is < 4.30

Looking up Cc1cc(N)nc(CCCCc2ccccc2)c1 [Example 70] , I found its pIC50 recorded as > 5.00

Looking up Cc1cc(N)nc(CCC(N)C(=O)O)c1 (centres unmarked) [Example 59, dihydrochloride] , I see its pIC50 listed as > 6.00

So for Cc1cc(N)nc(CCCC(=O)O)c1 [Example 75, hydrochloride] , the logged pIC50 turned out to be > 6.00

Value of pIC50 reported for the molecule Cc1cc(N)ncc1Br [Example 41, 2-Amino-5-bromo-4-methylpyridine] is > 5.00

Record Cc1ccc(N)nc1C [Example 51, 2-Amino-5,6-dimethylpyridine] . Reported pIC50: > 5.00

Input C=CCCc1cc(C)cc(N)n1 [Example 53] . Output pIC50: > 6.00

Memo: Cc1cc(N)ncc1CN [Example 45, dihydrochloride] , reported pIC50: > 5.00

// Cc1cc(N)nc(CC(C)C)c1 [Example 72] : pIC50 value = > 6.00

Item: Cc1cc(N)nc(CCCc2ccccc2)c1 [Example 69] | pIC50: > 4.30
